Test: HepG2 cytotoxicity, primary screen, cytotoxicity control for P. falciparum antimalarial project, cell-based, ATP luminescence (AID 2303);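 further: 0% = DMSO wells and 100% = digitonin-killed cells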
Conditions: HepG2 viability, 24-48 h, at 10 µM, hits give high values
Readout label: inhibition (%)
One number for each entry, in %.

{"Compound": "CNCCNCc1cccc(-c2ccc(-c3nc4ccc(C(F)(F)F)cc4[nH]3)cc2)c1", "inhibition / %": 21}
{"Compound": "Clc1ccc2c(NCCNc3ccnc4cc(Cl)ccc34)ccnc2c1", "inhibition / %": 6}
{"Compound": "Cc1cccc2[nH]c(-c3ccc(-c4cccc(CN5CCCC5CN)c4)s3)nc12 (centres undefined)", "inhibition / %": 20}
{"Compound": "NC1=NC(c2ccccc2)(c2cccc(O)c2)C(=O)N1CCCc1ccccc1 (centres undefined)", "inhibition / %": -2}

Each of the following entries comes with a recorded value; kindly state inhibition for each.
1. O=C(/C=C/c1ccc(Cl)c(Cl)c1)NCCCCCN1CCC(NC(=O)Nc2ccccc2Cl)CC1
2. O=C(NC1CCCCC1)N(Cc1cccc(-c2ccc(CNC3CCCC3)cc2)c1)C1CCN(Cc2ccccc2)CC1
3. CC(C)(C)OC(=O)N(Cc1cc(-n2nnnc2C(F)(F)F)ccc1O)[C@H]1CCCN(C(=O)OC(C)(C)C)[C@H]1c1ccccc1
4. NC1=NC(c2ccccc2)(c2ccccc2)C(=O)N1CC1CCC1
5. O=C(/C=C/c1ccc(Cl)c(Cl)c1)NCCCCCN1CCC(NC(=O)Nc2cccc(C(F)(F)F)c2)CC1
6. COc1cc(Cc2cnc(N)nc2N)cc(OCCCCc2nn[nH]n2)c1OC
7. Fc1ccccc1COc1ccc(Nc2ncnc3ccc(I)cc23)cc1Cl
8. C=C[C@H]1CN2CC[C@H]1C[C@@H]2[C@@H](O)c1ccnc2ccc(OC)cc12

-- reply
[56, 37, 14, 17, 61, 7, 17, -11]

Each of the following entries comes with a recorded value; kindly state inhibition for each.
1. O=C(Nc1cccc(-c2ccc(-c3nc4ccc(F)cc4[nH]3)cc2)c1)c1cccnc1
2. O=C(Nc1ccc(-c2cccc(-c3nc4ccc(C(F)(F)F)cc4[nH]3)c2)cc1)c1cccnc1
3. COc1ccc2ncc(F)c(CCN3CC[C@H](NCc4cc5c(s4)CCCN5)[C@H](O)C3)c2n1
4. O=C(/C=C/c1ccc(Cl)c(Cl)c1)NC1CCN(Cc2ccc(O)cc2)CC1
5. CCOC(=O)C(C)(C)Oc1ccc(C(=C2CC(C)(C)CC(C)(C)C2)c2ccc(O)cc2)cc1
6. COc1cc2c(Nc3ccc(NC(=O)c4ccccc4)cc3)ncnc2cc1OCCCN1CCOCC1

-- reply
1: 27; 2: 74; 3: 2; 4: -1; 5: -3; 6: 14

-- ask Need inhibition, item `CCCc1cn2c3c(cc(C(=O)N[C@@H](Cc4ccccc4)[C@H](O)CNC4CCCCC4)cc13)N(CC)S(=O)(=O)CC2`
-- reply 2

====

Experiment: viability rescue of complex I mutant cybrids, primary screen, cell-based, galactose medium, ATP luminescence (AID 1645843);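 further: positive z means more ATP and so rescue of galactose-driven cybrid death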
Conditions: complex I mutant cybrid cells, 72 h, hits give high values
Outcome: yes for z-score of at least -0.07; no for anything lower.

{"Compound": "COc1ccccc1N1CCN(CCCCNC(=O)c2ccc(-c3ccc(C(C)=O)cc3)cc2)CC1", "Qualitative label": "no"}
{"Compound": "CC(C)(C)C(=O)C(Oc1ccc(Cl)cc1)n1ccnc1 (stereo not given)", "Qualitative label": "no"}
{"Compound": "O=C(CCc1ccc(O)cc1)c1c(O)cc(O)cc1O[C@@H]1O[C@H](CO)[C@@H](O)[C@H](O)[C@H]1O", "Qualitative label": "no"}
{"Compound": "CCc1cccc(N(C)C(N)=Nc2cccc3ccccc23)c1", "Qualitative label": "no"}

Pending compound:
-- ask z-score >= -0.07 for `CN(C)CCN(Cc1cccs1)c1ccccn1` ?
-- reply yes
